Origin of the recorded values: ChEMBL document CHEMBL1134178

Test system: K562
Experiment: In vitro inhibitory activity against K562 human leukemia cell line
Type: functional, cell-based
pIC50: −log10 of the molar value.
observable: pIC50

{"molecule.smiles": "C=C1CCC[C@]2(C)C[C@H]3OC(=O)[C@@H](CN4CCCCC4)[C@H]3C[C@@H]12", "system.name": "K562", "observable": "pIC50", "data.value": 5.30}
{"molecule.smiles": "C=C1C(=O)O[C@@H]2C[C@@]3(C)CCC[C@H](C)C3=C[C@H]12", "system.name": "K562", "observable": "pIC50", "data.value": 6.15}
{"molecule.smiles": "C[C@H]1CCC[C@]2(C)C[C@H]3OC(=O)[C@@H](CN4CCCCC4)[C@H]3C=C12", "system.name": "K562", "observable": "pIC50", "data.value": 5.70}
{"molecule.smiles": "C=C1CCC[C@]2(C)C[C@H]3OC(=O)[C@@H](CN4CCCC4)[C@H]3C[C@@H]12", "system.name": "K562", "observable": "pIC50", "data.value": 5.30}
{"molecule.smiles": "C=C1CCC[C@]2(C)C[C@H]3OC(=O)[C@@H](CN(C)CCO)[C@H]3C[C@@H]12", "system.name": "K562", "observable": "pIC50", "data.value": 5.40}
{"molecule.smiles": "C=C1CCC[C@]2(C)C[C@H]3OC(=O)[C@@H](CN(C)C)[C@H]3C[C@@H]12", "system.name": "K562", "observable": "pIC50", "data.value": 5.52}
{"molecule.smiles": "C=C1CCC[C@]2(C)C[C@H]3OC(=O)[C@@H](CNCCCN(C)C)[C@H]3C[C@@H]12", "system.name": "K562", "observable": "pIC50", "data.value": 5.22}
{"molecule.smiles": "C=C1CCC[C@]2(C)C[C@H]3OC(=O)[C@@H](CN(CCC)CCC)[C@H]3C[C@@H]12", "system.name": "K562", "observable": "pIC50", "data.value": 5.30}
